# credit: patent US7112594B2

# Test system: rat lymphocytes
# experiment-description: Proliferation of rat lymphocytes stimulated by PMA and calcium ionophore A23187 (tritium thymidine uptake)
# Type: cell-based
# applied-conditions: Lymphocyte, PMA 10 ng/ml and A23187 100 ng/ml
readout-name: IC50 (nM)

| compound | experimental-target | readout-name | observed |
| --- | --- | --- | --- |
| N#Cc1cc(NC(=O)c2cc3ccccc3s2)ccc1N1CCN(CCO)CC1 [Example 11] | rat lymphocytes | IC50 | 1500 |
| Cc1[nH]c2ccc(F)cc2c1C(=O)Nc1ccc(Oc2ccccc2)c(C#N)c1 [Example 6] | rat lymphocytes | IC50 | 390 |
| N#Cc1cc(NC(=O)c2cc3ccccc3o2)ccc1N1CCC(CCO)CC1 [Example 20] | rat lymphocytes | IC50 | 230 |
| CC(C)c1ccc2c(O)c(C(=O)Nc3ccc(OCC(C)(C)C)c(C#N)c3)sc2n1 [Example 28] | rat lymphocytes | IC50 | 2000 |
